System: COLO 205 colon
Assay: NCI-60 one-dose screen, 48 h (100 = growth as untreated, 0 = no growth, -100 = all killed)
Conditions: 10 µM
Procedure: Cells are grown in 96 well plates and exposed to the test compound for 48 hours. Compounds are tested at a single concentration, which is 10^-5 M for most compounds. The reported endpoint is percent growth (GI% or GIPRCNT), where numbers from 0 - 100% represent growth inhibition, and numbers from -100% - 0 represent cell death. For example, a value of 40 represents 60% growth inhibition. A value of 0 means no net growth occurred over the course of the experiment. […]
The panel holds about 83,000 compounds, 20% with a hit somewhere; the sample as a whole holds those more often.
Provide the recorded growth for the entries that follow.
Numbers only here, please. The scale is %.

Field request: growth | item: "CCN(CC)CCOC(=O)c1cc(OCc2ccccc2)c(OCc2ccccc2)c(OCc2ccccc2)c1" 62.1

Field request: growth | item: "O=C(N/N=C/c1c(Cl)cccc1Cl)c1ccccc1Nc1cccc(C(F)(F)F)c1" 126

Field request: growth | item: COc1ccc(C2CC(c3cc(OC)c(OC)c(OC)c3)=NN2)cc1 (stereo not given) 55.1

Field request: growth | item: "Cc1ccc(Cl)cc1NC(=O)CCl" 110

Field request: growth | item: "COc1ccc(C(=O)CC(CC(=O)c2ccc(OC)cc2)c2c(C)nn(-c3ccccc3)c2Cl)cc1" 117

###

tested on: NCI-H226 lung; assay: NCI-60 one-dose screen, 48 h (100 = growth as untreated, 0 = no growth, -100 = all killed); settings: 10 µM
About 83,000 compounds went through this panel and 20% of them were active in at least one assay; those are over-represented in the sample as a whole.
Response key: YES means growth >= 90%; NO means growth < 90%.

Hello, I need to know if COc1cc(/C=C2\CCCC3=C2NC(N)=NC3c2cc(OC)c(OC)c(OC)c2)cc(OC)c1OC (centres undefined) has measured growth not below 90%. Thanks! NO

Hello, I need to know if "c1ccc(CCCCc2ccc3ccccc3n2)cc1" has measured growth not below 90%. Thanks! YES

Hello, I need to know if "Cc1c(C(N)=O)sc2c1c(=O)n(Cc1ccccc1)c1nnc(-c3ccc(Br)cc3)n21" has measured growth not below 90%. Thanks! NO

Hello, I need to know if CCCCN(CCCC)C(=O)[C@H](CC)[C@@H]1CC[C@@H](C)[C@@H]([C@H](C)[C@@H](O)[C@@H](C)C(=O)[C@H](CC)C2O[C@]3(C=CC(=O)[C@]4(CC[C@@](C)([C@H]5CC[C@](O)(CC)[C@H](C)O5)O4)O3)[C@H](C)C[C@@H]2C)O1 (some centres undefined) has measured growth not below 90%. Thanks! NO

Hello, I need to know if "COc1cc(-c2nn(-c3ccc(NC(=O)NCCCNC(=O)c4ccccc4)cc3)cc2-c2ccncc2)ccc1Cl" has measured growth not below 90%. Thanks! NO

Hello, I need to know if "NC1=CC(=O)C(=O)c2cccnc21" has measured growth not below 90%. Thanks! NO

Hello, I need to know if "Cc1cc(Br)nnc1Br" has measured growth not below 90%. Thanks! NO

Hello, I need to know if "Nc1nc(-c2cccnc2)nc2c1sc(=S)n2-c1ccccc1" has measured growth not below 90%. Thanks! YES

Hello, I need to know if "O=C1c2c(c3c4ccccc4n(CCCCCCN4CCOCC4)c3c3[nH]c4ccccc4c23)C(=O)N1O" has measured growth not below 90%. Thanks! NO

Hello, I need to know if "COc1cc2cc(Oc3ccc(NC(=O)c4cc(C(F)(F)F)cc(C(F)(F)F)c4)cc3)c(C)nc2cc1OC" has measured growth not below 90%. Thanks! NO

Hello, I need to know if "COc1ccccc1N1CCCSC1=Nc1ccccc1" has measured growth not below 90%. Thanks! YES

Hello, I need to know if "CC(=O)COc1ccc(Cl)cc1Cl" has measured growth not below 90%. Thanks! YES

Hello, I need to know if "Nc1ccc(CC[C@H]2CCC/C=C/[C@@H]3C[C@H](O)C[C@H]3[C@H](O)/C=C/C(=O)O2)cc1" has measured growth not below 90%. Thanks! NO

Hello, I need to know if "O=C(CCn1cnc2c(cc(-c3ccccc3)n2-c2ccccc2)c1=O)Nc1ccc(F)cc1" has measured growth not below 90%. Thanks! YES

Hello, I need to know if NC1=NC(c2ccc(Cl)cc2)C2=C(N1)/C(=C/c1ccc(Cl)cc1)CCC2 (centres undefined) has measured growth not below 90%. Thanks! YES

Hello, I need to know if "COc1cc2nc(SCC(=O)Nc3cc(OC)c(OC)c(OC)c3)n(Cc3ccccc3)c(=O)c2cc1OC" has measured growth not below 90%. Thanks! NO

Hello, I need to know if "CCc1ccc(-c2ccc(-n3nc(C)c4c(N)nc(Cc5ccccc5)nc43)cc2)cc1" has measured growth not below 90%. Thanks! NO

###

test system: NCI/ADR-RES ovarian; assay: NCI-60 one-dose screen, 48 h; details: 10 µM
Compounds without any hit were thinned out: in the full panel of roughly 83,000, 20% have a hit. The source made the active and inactive calls. The calls were made as follows: active = growth percent below 10; inactive = the rest.
Would you mind answering with one of these outcomes? active, inactive

Hi, sorry to bother you, what did the test record for CC(=O)C1CCC2C3CC=C4CC(SC(=N)N)CCC4(C)C3CCC12C (stereo not drawn) ? inactive

Hi, sorry to bother you, what did the test record for COc1ccc(C(c2ccc(OCCN(C)C)cc2)c2cc3ccccc3c3ccccc23)cc1 (stereo not drawn) ? inactive

Hi, sorry to bother you, what did the test record for "COc1cc(C(=O)/C(C)=C/c2c[nH]c3ccccc23)cc(OC)c1OC" ? active

Hi, sorry to bother you, what did the test record for "CN1CCN(CCC(=O)Nc2cccc(-n3cc(-c4ccncc4)c(-c4ccc(Cl)c(O)c4)n3)c2)CC1" ? inactive

Hi, sorry to bother you, what did the test record for Cc1ccc(C(=O)C2C(=O)C3CCC2C3)cc1 (stereo not drawn) ? inactive

Hi, sorry to bother you, what did the test record for CO[C@H]1CC(O[C@@H]2/C(C)=C/C[C@@H]3C[C@@H](C[C@]4(C=C[C@H](C)[C@@H](C5CCCCC5)O4)O3)OC(=O)[C@@H]3C=C(C)[C@@H](O)[C@H]4OC/C(=C\C=C\[C@@H]2C)[C@]43O)O[C@@H](C)C1O[C@H]1C[C@H](OC)[C@@H](O)[C@H](C)O1 (stereo partly drawn) ? active

Hi, sorry to bother you, what did the test record for "Cc1ccc(N=Nc2ccccc2)cc1" ? inactive

Hi, sorry to bother you, what did the test record for "O=C(NCCNC(=O)c1ccc(F)cc1)Nc1ccc(-n2cc(-c3ccncc3)c(-c3ccc(Cl)c(O)c3)n2)cc1" ? inactive

###

tested on: SF-295 CNS; test: NCI-60 one-dose screen, 48 h (100 = growth as untreated, 0 = no growth, -100 = all killed); conditions: 10 µM
Compounds without any hit were thinned out: in the full panel of roughly 83,000, 20% have a hit.
Note to self: use t only for growth readings below 70%; a reading exactly at 70% still gets f.

Input "CCOC(=O)C(C)(c1ccccc1)c1ccccc1" ; condition: growth strictly below 70%. Does it hold? f

Input "COc1cc(/C=C/c2cc(/C=C/c3ccc(O)c(OC)c3)nc(N)n2)ccc1O" ; condition: growth strictly below 70%. Does it hold? t

Input "CCn1cc(CNc2ccc(C(=O)Nc3ccc4ccccc4c3)cc2)c(C)n1" ; condition: growth strictly below 70%. Does it hold? t

Input "COc1ccc(C(=O)c2ccccc2CN2C(=O)c3ccccc3C2=O)cc1" ; condition: growth strictly below 70%. Does it hold? f

Input "CCOC(=O)c1cc(C(=O)c2ccc(OC)c(OC)c2)n2c1ccc1ccc3cccnc3c12" ; condition: growth strictly below 70%. Does it hold? t

Input "CN1CCN(c2cc3c(cc2F)c(=O)c(C(=O)O)cn3-c2ccc(F)cc2)CC1" ; condition: growth strictly below 70%. Does it hold? f

Input Cc1ccc(C2NC(=S)N3C(c4ccc(C)cc4)NC(=S)N23)cc1 (stereo not given) ; condition: growth strictly below 70%. Does it hold? t

Input Nc1ccc(-c2cccs2)cc1NC(=O)c1ccc(CCCC(=O)Nc2ccc(C3CC3N)cc2)cc1 (stereo not given) ; condition: growth strictly below 70%. Does it hold? f

Input "CCN(CC)CCN1c2nc3ccccc3cc2Sc2cc3ccccc3nc21" ; condition: growth strictly below 70%. Does it hold? t

Input "CCn1c(SCCc2ccccc2)nnc1-c1nn(-c2ccc(Cl)cc2Cl)c(-c2ccc(Cl)cc2)c1C" ; condition: growth strictly below 70%. Does it hold? t

###

test system: HT29 colon; assay: NCI-60 one-dose screen, 48 h; conditions: 10 µM
About 83,000 compounds went through this panel and 20% of them were active in at least one assay; those are over-represented in the sample as a whole. The source made the active and inactive calls. The calls were made as follows: active = growth percent below 10; inactive = the rest.
Would you mind answering with one of these outcomes? active, inactive

Hi, sorry to bother you, what did the test record for CCCCCC(=O)O[C@]1(C(C)=O)CCC2C3CCC4=CC(=O)CC[C@]4(C)C3CC[C@@]21C (stereo partly drawn) ? inactive

Hi, sorry to bother you, what did the test record for C=CCN(CC=C)C(=O)[C@H](CC)[C@@H]1CC[C@@H](C)[C@@H]([C@H](C)[C@@H](O)[C@@H](C)C(=O)[C@H](CC)C2O[C@]3(C=C[C@@H](O)[C@]4(CC[C@@](C)([C@H]5CC[C@](O)(CC)[C@H](C)O5)O4)O3)[C@H](C)C[C@@H]2C)O1 (stereo partly drawn) ? active

Hi, sorry to bother you, what did the test record for CN1C(=O)C2(Nc3cc(Cl)ccc3S2)c2cc(Cl)ccc21 (stereo not drawn) ? inactive

Hi, sorry to bother you, what did the test record for "Cc1ccc(NCCNCC(C)(C)O)c2c(=O)c3ccc(Cl)cc3sc12" ? active

Hi, sorry to bother you, what did the test record for CC(=O)O[C@@]12CO[C@@H]1C[C@H](O)[C@@]1(C)C(=O)[C@H](O)C3=C(C)[C@@H](OC(=O)[C@H](O)[C@@H](NC(=O)OC(C)(C)C)c4ccccc4)C[C@@](O)([C@@H](OC(=O)c4ccccc4)C12)C3(C)C (stereo partly drawn) ? active

Hi, sorry to bother you, what did the test record for "CC(=O)Nc1ccc(S(=O)(=O)c2ccnc3cc(Cl)ccc23)cc1" ? inactive

Hi, sorry to bother you, what did the test record for CCc1cc(Cl)c(OC)c(C(=O)NCC2CCCN2CC)c1O (stereo not drawn) ? inactive

Hi, sorry to bother you, what did the test record for "O=C(CSc1nccc(Nc2cccc3ccccc23)n1)c1ccc(Cl)cc1" ? inactive

Hi, sorry to bother you, what did the test record for "CCn1c(SCc2ccc(C)cc2)nnc1-c1nn(-c2ccc(Cl)cc2Cl)c(-c2ccc(Cl)cc2)c1C" ? active

Hi, sorry to bother you, what did the test record for "CCOC(=O)CSc1nc(-c2cc(OC)ccc2OC)cc(-c2ccc(OC)cc2)c1C#N" ? inactive

Hi, sorry to bother you, what did the test record for "CNC(=O)c1cc(Oc2ccc3c(c2)sc2nc(-c4ccc(N)cc4)cn23)ccn1" ? active

Hi, sorry to bother you, what did the test record for "O=C(/C=C/C=C/c1c(C2CC2)nc2ccccc2c1-c1ccc(F)cc1)c1cccs1" ? active

Hi, sorry to bother you, what did the test record for "C=CCn1c(SCC(=O)Nc2ccc(C(=O)/C=C/c3ccc(Cl)cc3)cc2)nnc1-c1cc(-c2ccccc2)nc2ccccc12" ? inactive

Hi, sorry to bother you, what did the test record for "O=C(O)COc1c(Cl)cc([N+](=O)[O-])cc1Cl" ? inactive

Hi, sorry to bother you, what did the test record for "O=C(N/N=C/c1ccc([N+](=O)[O-])cc1)c1ccccc1Nc1cccc(C(F)(F)F)c1" ? inactive

Hi, sorry to bother you, what did the test record for "COc1cc(/C=C/c2cc(/C=C/c3ccc(O)c(OC)c3)[nH]c(=O)n2)ccc1O" ? active

Hi, sorry to bother you, what did the test record for "CN(C)c1nc(N)c2nccnc2n1" ? inactive

Hi, sorry to bother you, what did the test record for "CC(=O)COc1ccc(Cl)cc1Cl" ? inactive
